Target: T1, PUF4 RNA-binding domain (Saccharomyces cerevisiae, UniProt P25339 537-888)
T1 sequence: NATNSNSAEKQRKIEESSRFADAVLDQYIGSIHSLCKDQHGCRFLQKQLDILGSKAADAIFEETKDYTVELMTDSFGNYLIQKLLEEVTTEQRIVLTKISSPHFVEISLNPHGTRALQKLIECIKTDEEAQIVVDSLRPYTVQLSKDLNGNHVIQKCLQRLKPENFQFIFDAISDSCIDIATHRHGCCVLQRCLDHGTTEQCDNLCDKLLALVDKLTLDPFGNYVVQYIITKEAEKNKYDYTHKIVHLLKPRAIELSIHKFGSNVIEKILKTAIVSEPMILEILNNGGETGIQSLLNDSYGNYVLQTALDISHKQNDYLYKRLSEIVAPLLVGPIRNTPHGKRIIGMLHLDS
Test: Mg; RNA-MaP; 20 mM Na-HEPES pH 7.4, 30 mM KOAc, 0.75 mM MgCl2, 0.1% Tween-20, 5% glycerol, 0.1 mg/mL BSA, 2 mM DTT; 25 C; 0.0125-409.6 nM protein
Settings: tags: N-His6-TEV cleaved; C-SNAP kept, Cy3B-labelled; label: tethered on chip by stalled RNA polymerase
Rule: Kd below 50 nM gives rule met, anything at or above gives rule not met.

Just wondering, is Kd of Ib_S2_P5E.1_K5.1_C5.1_H5.1_[A4C]_A5.1_F5.1_[A10C]_T5.1 (ssRNA) RNA: UUUGAUUAAUAUGAUAUCGUUCUUUCUUGUCUUAUUCUUCUUUCUCGAUAUCAUAUUAAUCUUU below 50 nM?
rule not met

Just wondering, is Kd of ACAAACAUUAUAUAUUAUCACAAAC (ssRNA) [Id_ii_S3_P4E.3_K4.2_C4.2_[C-2A]_H4.2_A4.1_F4.1_T4.2_[G10T]_[T11C]] below 50 nM?
rule met

Just wondering, is Kd of Ie_S2_P5E.1_K5.1_C5.1_H5.1_A5.1_[+7CTC]_F5.1_T5.1 (ssRNA) RNA: UUUGAUUAAUAUGAUAUCGUUCUUUCUUGUAUUACUCUUAUUCUUUCUCGAUAUCAUAUUAAUCUUU below 50 nM?
rule met

We next turn to a different binder, shown below.
Just wondering, is Kd of ACAAACCAUAUAUAUUACCACAAAC (ssRNA) [Id_ii_S3_P4E.3_K4.2_C4.2_[T-1A]_H4.2_A4.1_F4.1_T4.2_[G10C]_[T11C]] below 50 nM?
rule met
